This section presents molecules with their documented IC50 values.
Test system: IL-2 secretion by human effector memory T cells (TEM)
Experiment: Effector memory T cells IL-2 release assay
Assay type: cell-based
Settings: T-cell; human CD4+ effector memory T cells, CD3/CD28 bead stimulation, 24 h; read-out: CD4TC IL2 IC50
Protocol: Effector Memory T Cells IL-2 Release Assay Test compound-mediated inhibition of NFκB signalling in T cells was assessed by quantification of the IL-2 secretion by human effector memory T cells (TEM) upon treatment and stimulation. Human TEM cells were isolated from buffy coats of healthy donors obtained from the French blood bank. […]
Kindly provide the numeric value in nM only, without the unit symbol.

INSERT INTO measurements (molecule, reported_measurement) VALUES
  ('CN(C(=O)C1CCS(=O)(=O)CC1)[C@@H](c1ccc(N2CCCc3c2cnc2cc(F)nn32)cc1)C(F)(F)F', 195),
  ('CN(C(=O)CO)[C@@H](c1ccc(N2CCCc3c2cnc2cc(Cl)nn32)cc1)C(F)(F)F', 104),
  ('CN(C(=O)[C@H]1CC[C@H](C(=O)O)CC1)[C@@H](c1ccc(N2CCCc3c2cnc2cc(Cl)nn32)cc1)C(F)(F)F', 300);

For reference, reported IC50 for CSc1cc2ncc3c(n2n1)CCCN3c1ccc([C@H](N(C)C(=O)C2CCS(=O)(=O)CC2)C(F)(F)F)cc1 stands at 228

For reference, reported IC50 for CN(C)CC(=O)N1CC[C@@H](C(=O)N(C)[C@@H](c2ccc(N3CCCc4c3cnc3cc(Cl)nn43)cc2)C(F)(F)F)C1 (relative stereo) stands at 172

For reference, reported IC50 for CN(C(=O)[C@H]1CC[S@+]([O-])CC1)[C@@H](c1ccc(N2CCC(C)(C)c3c2cnc2cc(Cl)nn32)cc1)C(F)(F)F (relative stereo) stands at 36

For reference, reported IC50 for CC1CCN(c2ccc([C@H](N(C)C(=O)C3CCS(=O)(=O)CC3)C(F)(F)F)cn2)c2cnc3cc(Cl)nn3c21 (stereo partly shown) stands at 213

* * *

target: Recombinant human MALT-1 (amino acids 340-824) (Homo sapiens (Human), UniProt Q9UDY8); assay: MALT-1 inhibition assay (fluorogenic substrate Ac-LRSR-Rh110-DP); details: recombinant human MALT-1, substrate Ac-LRSR-Rh110-DP
Sequence (Q9UDY8 340-824): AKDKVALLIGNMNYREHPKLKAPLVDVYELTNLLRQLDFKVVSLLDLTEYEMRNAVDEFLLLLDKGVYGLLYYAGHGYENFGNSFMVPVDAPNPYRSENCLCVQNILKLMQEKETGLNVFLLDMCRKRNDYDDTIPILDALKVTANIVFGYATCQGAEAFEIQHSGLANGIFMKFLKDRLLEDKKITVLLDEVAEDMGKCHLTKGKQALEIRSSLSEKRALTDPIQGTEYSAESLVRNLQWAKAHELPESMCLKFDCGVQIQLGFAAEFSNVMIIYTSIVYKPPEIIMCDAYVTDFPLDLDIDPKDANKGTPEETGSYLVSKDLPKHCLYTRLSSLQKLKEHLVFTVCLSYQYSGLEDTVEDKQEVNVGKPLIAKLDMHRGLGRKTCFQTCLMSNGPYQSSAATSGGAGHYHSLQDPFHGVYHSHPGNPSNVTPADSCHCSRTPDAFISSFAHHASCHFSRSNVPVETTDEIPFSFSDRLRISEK
readout_name: pIC50
Recall that pIC50 is obtained by taking minus log10 of the concentration measured in molar.

INSERT INTO measurements (compound, reported_measurement) VALUES
  ('CN(C(=O)[C@H]1CC[S@@](=N)(=O)CC1)[C@@H](c1ccc(N2CCC3(CC3)c3c2cnc2cc(F)nn32)cc1)C(F)(F)F (relative stereo) [CPD0072852]', 7.55),
  ('CN(C(=O)C1CCS(=N)(=O)CC1)[C@@H](c1ccc(N2CC3(CC3)Cc3c2cnc2cc(Cl)nn32)cc1)C(F)(F)F (stereo partly drawn) [CPD0073761]', 7.11),
  ('CN1C[C@@H](C(=O)N(C)[C@@H](c2ccc(N3CCCc4c3cnc3cc(Cl)nn43)cc2)C(F)(F)F)CCC1=O (relative stereo) [CPD0073196]', 7.10),
  ('COC(C)c1c(Nc2ccc([C@H](N(C)C(=O)C3CCS(=O)(=O)CC3)C(F)(F)F)cn2)cnc2ccc(Cl)nc12 (stereo in doubt) [CPD0019501]', 6.46),
  ('CN(C(=O)[C@@H]1CCS(=O)(=O)C1)[C@@H](c1ccc(N2CCCc3c2cnc2cc(Cl)nn32)cc1)C(F)(F)F (relative stereo) [CPD0022135]', 7.08),
  ('CC1CCc2c(cnc3cc(Cl)nn23)N1c1ccc([C@H](N(C)C(=O)C2CCS(=O)(=O)CC2)C(F)(F)F)cc1 (stereo partly drawn) [CPD0072805]', 6.76);

For reference, reported pIC50 for COc1ccc2ncc(Nc3ccc([C@H](N(C)C(=O)C4CCN(C(=O)CO)CC4)C(F)(F)F)cc3)c([C@H]3CCOC3)c2n1 [CPD0082481] stands at 7.14

For reference, reported pIC50 for CN(C(=O)[C@H]1CC[S@](=N)(=O)CC1)[C@@H](c1ccc(N2CCCc3c2cnc2cc(Cl)nn32)cc1)C(F)(F)F (relative stereo) [CPD0072529] stands at 7.59

* * *

This section presents compounds with their documented IC50 values.
system: IL-2 secretion by human effector memory T cells (TEM); test: Effector memory T cells IL-2 release assay; assay type: cell-based; conditions: T-cell; human CD4+ effector memory T cells, CD3/CD28 bead stimulation, 24 h; read-out: CD4TC IL2 IC50
Kindly provide the numeric value in nM only, without the unit symbol.

For reference, reported IC50 for CN(C(=O)[C@@H](O)C1CCS(=O)(=O)CC1)[C@@H](c1ccc(N2CCCc3c2cnc2cc(Cl)nn32)cc1)C(F)(F)F (relative stereo) stands at 149

* * *

test system: IL-2 secretion by human effector memory T cells (TEM); test: Effector memory T cells IL-2 release assay; type: cell-based; settings: T-cell; human CD4+ effector memory T cells, CD3/CD28 bead stimulation, 24 h; read-out: CD4TC IL2 IC50
readout_name: IC50 (nM)
Kindly provide the numeric value in nM only, without the unit symbol.

INSERT INTO measurements (molecule, readout_name, reported_measurement) VALUES
  ('CN(C(=O)[C@@H]1COC(=O)N1C)[C@@H](c1ccc(N2CCCc3c2cnc2cc(Cl)nn32)cc1)C(F)(F)F (relative stereo) [CPD0073571]', 'IC50', 153),
  ('CN(C(=O)CN1CCS(=O)(=O)CC1)[C@@H](c1ccc(N2CCCc3c2cnc2cc(Cl)nn32)cc1)C(F)(F)F [CPD0073572]', 'IC50', 253),
  ('Cc1cn2ncc(Nc3ccc([C@H](N(C)C(=O)C4CCS(=O)(=O)CC4)C(F)(F)F)cc3)cc2n1 [CPD0018617]', 'IC50', 386),
  ('CN(C(=O)C1CC(C(=O)O)C1)[C@@H](c1ccc(N2CCCc3c2cnc2cc(Cl)nn32)cc1)C(F)(F)F (stereo partly shown) [CPD0072461]', 'IC50', 732),
  ('CN(C(=O)C1CCS(=N)(=O)CC1)[C@@H](c1ccc(N2CCCc3c2cnc2cc(Cl)nn32)cc1)C(F)(F)F (stereo partly shown) [CPD0021810]', 'IC50', 194),
  ('COC(=O)N1CCC(C(=O)N(C)[C@@H](c2ccc(N3CCCc4c3cnc3cc(Cl)nn43)cc2)C(F)(F)F)CC1 [CPD0073691]', 'IC50', 149),
  ('CN(C(=O)C1C2CS(=O)(=O)CC21)[C@@H](c1ccc(N2CCCc3c2cnc2cc(Cl)nn32)cc1)C(F)(F)F (stereo partly shown) [CPD0072801]', 'IC50', 147),
  ('CC(=O)N1CCC[C@@H](C(=O)N(C)[C@@H](c2ccc(N3CCCc4c3cnc3cc(Cl)nn43)cc2)C(F)(F)F)C1 (relative stereo) [CPD0073499]', 'IC50', 175);

For reference, reported IC50 for CN1C(=O)OC[C@@H]1C(=O)N(C)[C@@H](c1ccc(N2CCCc3c2cnc2cc(Cl)nn32)cc1)C(F)(F)F (relative stereo) [CPD0073570] stands at 216

For reference, reported IC50 for CN(C(=O)[C@H]1CC[S@@+]([O-])CC1)[C@@H](c1ccc(N2CCCc3c2cnc2cc(Cl)nn32)cc1)C(F)(F)F (relative stereo) [CPD0022136] stands at 106

For reference, reported IC50 for CC(=O)N1CCC(C(=O)N(C)[C@@H](c2ccc(N3CC[C@@H](C)c4c3cnc3cc(Cl)nn43)cc2)C(F)(F)F)CC1 [CPD0074558] stands at 67

For reference, reported IC50 for CN(C(=O)C1CCOC1)[C@@H](c1ccc(N2CCCc3c2cnc2cc(Cl)nn32)cc1)C(F)(F)F (stereo partly shown) [CPD0021568] stands at 143

For reference, reported IC50 for CN(C(=O)[C@H]1CC[S@@+]([O-])CC1)[C@@H](c1ccc(N2CCC(C)(C)c3c2cnc2cc(Cl)nn32)cc1)C(F)(F)F (relative stereo) [CPD0072776] stands at 35

* * *

target: Recombinant human MALT-1 (amino acids 340-824) (Homo sapiens (Human), UniProt Q9UDY8); experiment: MALT-1 inhibition assay (fluorogenic substrate Ac-LRSR-Rh110-DP); conditions: recombinant human MALT-1, substrate Ac-LRSR-Rh110-DP
This section presents molecules with their documented IC50 values.
Kindly provide the numeric value in nM only, without the unit symbol.

// known answers, use as guide
INSERT INTO results (molecule, readout_name, reported_measurement) VALUES
  ('CN(C(=O)[C@@H]1CCN(S(C)(=O)=O)C1)[C@@H](c1ccc(N2CCCc3c2cnc2cc(Cl)nn32)cc1)C(F)(F)F (relative stereo)', 'IC50', 66),
  ('COc1ccc2ncc(Nc3ccc([C@H](N(C)C(=O)[C@H]4CC[S@@](=N)(=O)CC4)C(F)(F)F)cc3)c([C@@H](C)OC)c2n1', 'IC50', 89),
  ('COc1ccc2ncc(Nc3ccc([C@@H](N(C)C(=O)[C@H]4CC[S@](=N)(=O)CC4)C(F)(F)F)cc3)c([C@H](C)OC)c2n1 (relative stereo)', 'IC50', 117),
  ('CN(C(=O)[C@H]1C[C@@H](O)C1)[C@@H](c1ccc(N2CCCc3c2cnc2cc(Cl)nn32)cc1)C(F)(F)F', 'IC50', 57),
  ('C[C@@H]1CCN(c2ccc([C@H](N(C)C(=O)[C@H]3CC[S@@](=N)(=O)CC3)C(F)(F)F)cc2)c2cnc3cc(Cl)nn3c21 (relative stereo)', 'IC50', 25);

Kindly consider the entry below.
# COC[C@@]1(C)CCN(c2ccc([C@H](N(C)C(=O)[C@H]3CC[S@](=N)(=O)CC3)C(F)(F)F)cc2)c2cnc3cc(Cl)nn3c21 (relative stereo) with Recombinant human MALT-1 (amino acids 340-824) (Homo sapiens (Human), UniProt Q9UDY8): IC50 is 85

All values here come from patent US20250051327A1.
